Sourced from PubChem BioAssay (EPA / NIEHS)

- Read-out: Collagen III, COL3A1 (gene 1281)
- MEASUREMENT_NOTES: BSK_hDFCGF_CollagenIII: BioMAP Diversity Plus: hDFCGF Assay for Collagen III Biomarker Activity (AID 2283056)
- CONDITION_DESCRIPTION: primary human foreskin fibroblasts; actives raise or lower the signal
- Procedure: BSK_hDFCGF is a cell-based, multiplexed-readout assay that uses foreskin fibroblast, a human skin primary cell, with measurements taken at 24 hours after chemical dosing in a 96-well plate.BSK_hDFCGF_CollagenIII is an assay component measured in the BSK_hDFCGF assay. It measures Collagen antibody related to regulation of gene expression using ELISA technology.Data from the assay component BSK_hDFCGF_CollagenIII was analyzed into 1 assay endpoint. […]
Calls of active or inactive are those of the source. The calls were made as follows: active = hit-call score of the fitted dose curve at least 0.9, where 1 is the maximum; inactive = score below 0.9.
Outcomes: 1 (active), -1 (inactive)

>>> category_label("CCOP(=S)(OCC)SCSP(=S)(OCC)OCC")
1
>>> category_label("CCCCCCCCc1ccc(O)cc1")
1
>>> category_label("CCOP(=S)(OCC)SCCS(=O)(=O)CC")
-1
>>> category_label("CC(=O)OC(c1ccccc1)C(Cl)(Cl)Cl (stereo not drawn)")
-1
>>> category_label("CCOC(=O)/C=C(C)/C=C/C[C@@H](C)CCCC(C)C")
1
>>> category_label("CCOP(=S)(OCC)Oc1ccc(S(C)=O)cc1 (stereo not drawn)")
-1
>>> category_label("COC(=O)Cc1ccccc1")
-1
>>> category_label("CCC(=O)C(CC(C)N(C)C)(c1ccccc1)c1ccccc1 (stereo not drawn)")
-1
>>> category_label("CC(C)(c1ccccc1)c1ccc(O)c(C(C)(C)c2ccccc2)c1")
1
>>> category_label("CC(C)c1ccc(CO)cc1")
-1
>>> category_label("O=[N+]([O-])c1ccc2c3c(cccc13)CC2")
-1
>>> category_label("COP(=S)(OC)Oc1c(Cl)cc(C)cc1Cl")
1
>>> category_label("Nc1ncc([N+](=O)[O-])s1")
-1
>>> category_label("OCc1ccco1")
-1
>>> category_label("Nc1cccc2ccccc12")
1
>>> category_label("C[C@]12CCC(=O)C[C@@H]1CC[C@@H]1[C@@H]2CC[C@]2(C)[C@@H](O)CC[C@@H]12")
-1
>>> category_label("ClC1(Cl)C2(Cl)C3(Cl)C4(Cl)C(Cl)(Cl)C5(Cl)C3(Cl)C1(Cl)C5(Cl)C24Cl (stereo not drawn)")
-1
>>> category_label("O=[N+]([O-])c1ccc(O)c([N+](=O)[O-])c1")
-1
